- tested on: T1, rat GALR3 receptor (rat, UniProt O88626 1-370)
- T1 construct: also called rGALR3; rGalR3
- T1 chain: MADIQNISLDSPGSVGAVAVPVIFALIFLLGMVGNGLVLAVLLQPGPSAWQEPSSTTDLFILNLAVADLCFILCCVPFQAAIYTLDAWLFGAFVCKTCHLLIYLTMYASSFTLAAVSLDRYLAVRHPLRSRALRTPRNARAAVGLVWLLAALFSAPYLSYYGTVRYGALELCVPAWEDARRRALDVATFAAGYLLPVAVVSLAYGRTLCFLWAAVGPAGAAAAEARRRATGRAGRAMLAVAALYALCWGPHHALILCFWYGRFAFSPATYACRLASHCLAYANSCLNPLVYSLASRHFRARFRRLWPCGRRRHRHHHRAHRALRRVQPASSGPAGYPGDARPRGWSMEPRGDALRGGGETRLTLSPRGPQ
- experiment description: displacement of porcine 125I-galanin; rat GALR3 in 293 #105

| binder | Ki [nM] |
| --- | --- |
| LGSPVKEKRGWTLNSAGYLLGPHAIDNHRSFHDKYGLA (peptide, UniProt P07480 24-61, looked up, range -9 to +29; also called galanin -9 to +29) [(-) 9 to (+) 29 galanin, porcine] | 4.17 |
